Target: Cannabinoid CB1 Receptor (Homo sapiens)
Construct: expressed in transfected cells
Sequence (P21554 whole entry): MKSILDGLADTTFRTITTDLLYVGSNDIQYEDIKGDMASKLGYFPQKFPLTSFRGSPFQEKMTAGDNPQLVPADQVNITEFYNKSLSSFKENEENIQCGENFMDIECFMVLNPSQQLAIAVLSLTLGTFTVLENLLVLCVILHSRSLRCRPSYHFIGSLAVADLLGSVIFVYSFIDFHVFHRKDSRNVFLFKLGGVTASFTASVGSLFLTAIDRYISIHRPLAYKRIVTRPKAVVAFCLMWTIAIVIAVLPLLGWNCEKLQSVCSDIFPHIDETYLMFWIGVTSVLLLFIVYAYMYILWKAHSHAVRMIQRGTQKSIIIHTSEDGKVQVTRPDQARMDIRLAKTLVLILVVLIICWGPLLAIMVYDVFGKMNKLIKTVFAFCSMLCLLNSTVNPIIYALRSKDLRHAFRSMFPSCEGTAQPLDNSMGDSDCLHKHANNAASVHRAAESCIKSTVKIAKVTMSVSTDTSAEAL
Assay: Binding assay for CB1 agonists or inverse agonists (radioligand competition, membranes of transfected SK-N-MC cells)
Conditions: read-out: Cannabinoid CB1 Receptor Binding percent inhibition
measured property: inhibition at 0.2 µM (%)
Reply numerically in %, unit not repeated.

So, CCNC(=O)N1CCc2c(c(C(=O)NC3C4(C)CCC(C4)C3(C)C)nn2-c2ccccc2)C1 (centres unmarked) [Cpd 114] ? Its inhibition at 0.2 µM was 51

***
Lab note: measured inhibition at 0.2 µM of CC(C)(C)OC(=O)N1CCc2c(c(C(=O)NC3C4(C)CCC(C4)C3(C)C)nn2-c2ccccc2)C1 (centres unmarked) [Cpd 111] was 27

Entry under test: CC(C)(C)OC(=O)N1C/C(=C\c2ccc(F)cc2)c2c(c(C(=O)NN3CCCCC3)nn2-c2ccc(Cl)cc2Cl)C1 [Cpd 9] . Its inhibition at 0.2 µM was 55

inhibition at 0.2 µM measured on C[C@@H](NC(=O)c1nn(-c2ccc(Cl)cc2Cl)c2c1CN(S(C)(=O)=O)C/C2=C\c1ccc(F)cc1)c1ccccn1 [Cpd 140] = 96

The recorded inhibition at 0.2 µM for C[C@H](NC(=O)c1nn(-c2ccc(Cl)cc2Cl)c2c1CN(C(=O)OC(C)(C)C)C/C2=C\c1ccc(F)cc1)C1CCCCC1 [Cpd 4] is 48

The value of inhibition at 0.2 µM measured for the compound O=C(NN1CCCCC1)c1nn(-c2ccc(Cl)cc2)c2c1CNC/C2=C\c1ccc(F)cc1 [Cpd 76] turned out to be 48

Notebook: C[C@H](NC(=O)c1nn(-c2ccc(Cl)cc2Cl)c2c1CNC/C2=C\c1ccc(F)cc1)C1CCCCC1 [Cpd 5] , inhibition at 0.2 µM read as 48

The reported value for CC(=O)N1C/C(=C\c2ccc(F)cc2)c2c(c(C(=O)N(C(C)=O)N3CCCCC3)nn2-c2ccc(Cl)cc2Cl)C1 [Cpd 134] in terms of inhibition at 0.2 µM is 50

----------
// values below are reported IC50
Target: Cannabinoid CB1 Receptor (Homo sapiens)
Construct: expressed in transfected cells
Assay: Binding assay for CB1 agonists or inverse agonists (radioligand competition, membranes of transfected SK-N-MC cells)
The figure you give is taken to be in nM; do not add the unit.

// worked examples, IC50 included
The compound listed as "CCNC(=O)N1C/C(=C\c2ccc(OC)cc2)c2c(c(C(=O)NN3CCCCC3)nn2-c2ccc(Cl)cc2Cl)C1" has a reported IC50 of 20

get_value(item= "C[C@@H](NC(=O)c1nn(-c2ccc(Cl)cc2)c2c1CN(C(=O)OC(C)(C)C)C/C2=C\c1ccc(F)cc1)c1ccccc1" , readout=IC50) returns 30

For reference, reported IC50 for CC(NC(=O)c1nn(-c2ccc(Cl)cc2Cl)c2c1CNC/C2=C\c1ccc(F)cc1)c1ccccn1 (stereo not shown) stands at 50

Continuing:
Entry CC(=O)N1C/C(=C\c2ccc(F)cc2)c2c(c(C(=O)NC(C)c3ccccn3)nn2-c2ccc(Cl)cc2)C1 (stereo not shown) , IC50 reported as 100

Record "COc1ccc(/C=C2\CN(C(=O)OC(C)(C)C)Cc3c(C(=O)N[C@H](C)c4ccccc4)nn(-c4ccc(Cl)cc4Cl)c32)cc1" . Reported IC50: 20

Noted for COC(=O)N1C/C(=C\c2ccc(F)cc2)c2c(c(C(=O)NN3CC4CCCC4C3)nn2-c2ccc(Cl)cc2Cl)C1 (stereo not shown) : its IC50 reads 20

The value of IC50 measured for the compound "CCOC(=O)CN1C/C(=C\c2ccc(OC)cc2)c2c(c(C(=O)NN3CCCCC3)nn2-c2ccc(Cl)cc2Cl)C1" turned out to be 40

----------
Biological target: UniProtKB P21554
Assay: cell-based
Conditions: one compound concentration; β-galactosidase activity relative to vehicle treated cells
measured property: CB1 Receptor Functional Activity (change in functional activity, CRE β-gal) (%)
Form entry: value (%) — number only.

Recorded results for 6 molecules are shown here.
Just so you know, measured CB1 Receptor Functional Activity (change in functional activity, CRE β-gal) for CN(C)S(=O)(=O)N1CCc2c(c(C(=O)NC3C4(C)CCC(C4)C3(C)C)nn2C2CCCCC2)C1 (centres unmarked) came out at 28

molecule COC(=O)N1CCc2c(c(C(=O)NC3C4CC5CC(C4)CC3C5)nn2C2CCCCC2)C1 (centres unmarked) , CB1 Receptor Functional Activity (change in functional activity, CRE β-gal) observed: −49

What the record says about COC(=O)CN1CCc2c(c(C(=O)NC3C4(C)CCC(C4)C3(C)C)nn2C2CCCCC2)C1 (centres unmarked) : CB1 Receptor Functional Activity (change in functional activity, CRE β-gal) is −7

Query COC(=O)N1CCc2c(c(C(=O)NC3C4(C)CCC(C4)C3(C)C)nn2-c2ccccc2)C1 (centres unmarked) yields CB1 Receptor Functional Activity (change in functional activity, CRE β-gal) of 81

Entry CC12CCC(C1)C(C)(C)C2NC(=O)c1nn(C2CCCCC2)c2c1CNCC2 (centres unmarked) , CB1 Receptor Functional Activity (change in functional activity, CRE β-gal) reported as 4

Per the record, CC12CCC(C1)C(C)(C)[C@H]2NC(=O)c1nn(Cc2ccccc2)c2c1CNCC2 (some centres unmarked) has CB1 Receptor Functional Activity (change in functional activity, CRE β-gal) of −18

Next:
Short answer for CN(C)C(=O)N1CCc2c(c(C(=O)NC3C4CC5CC(C4)CC3C5)nn2C2CCCCC2)C1 (centres unmarked) : CB1 Receptor Functional Activity (change in functional activity, CRE β-gal) was −42

Reported CB1 Receptor Functional Activity (change in functional activity, CRE β-gal) ( CC(C)(C)OC(=O)N1CCc2c(c(C(=O)NC3C4(C)CCC(C4)C3(C)C)nn2-c2ccccc2)C1 (centres unmarked) ) = 24

----------
Biological target: Cannabinoid CB1 Receptor (Homo sapiens)
Construct: expressed in transfected cells
Assay: Binding assay for CB1 agonists or inverse agonists (radioligand competition, membranes of transfected SK-N-MC cells)
measured property: IC50 (µM)
The reply should be a number in µM, with the unit left off.

Assay Cannabinoid CB1 Receptor (Homo sapiens), sample CN(C)S(=O)(=O)N1CCc2c(c(C(=O)NC3C4(C)CCC(C4)C3(C)C)nn2C2CCCCC2)C1 (centres unmarked) [Cpd 127] , IC50 read: 2.6

# value of IC50, Cannabinoid CB1 Receptor (Homo sapiens), item CCOC(=O)N1CCc2c(c(C(=O)NC3C4(C)CCC(C4)C3(C)C)nn2Cc2ccccc2)C1 (centres unmarked) [Cpd 107] = 0.1

Sample COc1ccc(/C=C2\CNCc3c(C(=O)N[C@H](C)c4ccccn4)nn(-c4ccc(Cl)cc4Cl)c32)cc1 [Cpd 93] , system: Cannabinoid CB1 Receptor (Homo sapiens). Its IC50 is 0.03

The molecule CS(=O)(=O)N1C/C(=C\c2ccc(F)cc2)c2c(c(C(=O)NN3CCCCC3)nn2-c2ccc(Cl)cc2Cl)C1 [Cpd 33] , when measured on Cannabinoid CB1 Receptor (Homo sapiens), yielded IC50 of 0.03

Form field, IC50 with Cannabinoid CB1 Receptor (Homo sapiens), item COc1ccc(/C=C2\CN(S(C)(=O)=O)Cc3c(C(=O)NC(C)c4ccccn4)nn(-c4ccc(Cl)cc4Cl)c32)cc1 (centres unmarked) [Cpd 63] : 0.006

Moving on to another molecule below.
The molecule C[C@@H](NC(=O)c1nn(-c2ccc(Cl)cc2Cl)c2c1CN(C(=O)OC(C)(C)C)C/C2=C\c1ccc(F)cc1)c1ccccc1 [Cpd 2] on Cannabinoid CB1 Receptor (Homo sapiens): IC50 was 0.03

----------
# inhibition at 0.2 µM per entry
Molecular target: Cannabinoid CB2 Receptor (Homo sapiens)
Construct: expressed in transfected cells
Sequence (P34972 whole entry): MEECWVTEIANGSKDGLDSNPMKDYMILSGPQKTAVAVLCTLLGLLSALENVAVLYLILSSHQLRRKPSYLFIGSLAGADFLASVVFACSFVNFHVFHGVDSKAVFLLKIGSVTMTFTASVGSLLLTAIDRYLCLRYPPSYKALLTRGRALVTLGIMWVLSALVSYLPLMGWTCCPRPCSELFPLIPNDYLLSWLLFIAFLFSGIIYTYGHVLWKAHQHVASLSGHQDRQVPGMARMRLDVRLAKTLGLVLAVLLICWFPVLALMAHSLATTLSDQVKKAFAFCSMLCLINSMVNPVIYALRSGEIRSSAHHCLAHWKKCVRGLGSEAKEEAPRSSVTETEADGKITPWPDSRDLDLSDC
Experiment: Binding assay for CB2 agonists or inverse agonists (radioligand competition, membranes of transfected SK-N-MC cells)
Details: test concentration of 0.2 μM; compounds without an IC50 binding value; read-out: Cannabinoid CB2 Receptor Binding percent inhibition
The reply should contain only the number, in %.

Use the examples below as a reference point.
// sample "COC(=O)N1C/C(=C\c2ccc(F)cc2)c2c(c(C(=O)N[C@H](C)C3CCCCC3)nn2-c2ccc(Cl)cc2Cl)C1" , its inhibition at 0.2 µM was 11

Per the record, O=C(NN1CC2CCCC2C1)c1nn(-c2ccc(Cl)cc2)c2c1CNC/C2=C\c1ccc(F)cc1 (centres unmarked) has inhibition at 0.2 µM of 11

Form field inhibition at 0.2 µM, entry "C[C@@H](NC(=O)c1nn(-c2ccc(Cl)cc2Cl)c2c1CN(CC(=O)O)C/C2=C\c1ccc(F)cc1)c1ccccc1" : 7

More entries:
Briefly, inhibition at 0.2 µM measured for "COc1ccc(/C=C2\CNCc3c(C(=O)NN4CCC(O)CC4)nn(-c4ccc(Cl)cc4Cl)c32)cc1" : 0

Entry "C[C@@H](NC(=O)c1nn(-c2ccc(Cl)cc2Cl)c2c1CN(S(=O)(=O)N(C)C)C/C2=C\c1ccc(F)cc1)c1ccccc1" — recorded inhibition at 0.2 µM = 42
